Measured Emax by item
Molecular target: human M2 receptor (Homo sapiens)
Construct: expressed in transfected cells; host or cells: CHO-DUKX (CHO-DUKX-M2-GIRK)
Sequence (P08172 whole entry): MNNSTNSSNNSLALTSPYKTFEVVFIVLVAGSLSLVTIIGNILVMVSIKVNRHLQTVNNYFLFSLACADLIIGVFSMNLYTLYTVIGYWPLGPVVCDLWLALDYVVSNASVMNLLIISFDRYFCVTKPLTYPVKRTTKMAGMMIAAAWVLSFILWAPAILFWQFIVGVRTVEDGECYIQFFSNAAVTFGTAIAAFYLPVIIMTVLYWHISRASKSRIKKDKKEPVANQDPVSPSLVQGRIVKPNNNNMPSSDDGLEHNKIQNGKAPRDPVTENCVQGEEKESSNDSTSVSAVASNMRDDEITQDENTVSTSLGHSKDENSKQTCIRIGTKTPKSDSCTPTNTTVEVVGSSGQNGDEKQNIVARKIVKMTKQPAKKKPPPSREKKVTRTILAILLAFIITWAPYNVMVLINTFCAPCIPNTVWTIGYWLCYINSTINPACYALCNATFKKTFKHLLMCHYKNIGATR
Assay: Functional M2-GIRK1/4 activation test: allosteric potency (EC50) and efficiency at EC20 acetylcholine
Format: cell-based
Conditions: boosting of the acetylcholine effect at EC20 acetylcholine concentration; CHO-DUKX-M2-GIRK cells

molecule: C[C@H](O)CN(C)c1nc2c(cc1F)c(=O)c(C(=O)N[C@@H](C1CC1)C(F)(F)F)cn2-c1c(F)cc(F)cc1F
Emax: 96%
--
molecule: O=C(NC(C(F)(F)F)C(F)(F)F)c1cn(-c2c(F)cc(F)cc2F)c2nc(N3CCCC[C@@H]3CO)c(F)cc2c1=O
Emax: 97%
--
molecule: CC(NC(=O)c1cn(-c2c(F)cc(F)cc2F)c2nc(N3CCC[C@@H]3CO)c(F)cc2c1=O)C(F)(F)C(F)(F)F (single isomer, unassigned)
Emax: 90%
--
molecule: CC(NC(=O)c1cn(-c2c(F)cc(F)cc2F)c2nc(N3CCC(O)C(O)C3)c(F)cc2c1=O)C(F)(F)C(F)(F)F (single isomer, unassigned) [Example 182]
Emax: 100%
